Record form. Attribute: TGI. Fill in for each entry.
System: SK-MEL-2 melanoma
PROCEDURE_DETAILS: NCI tumour cell line growth inhibition, 48 h
Answers are plain numbers, in µM.

Would you be so kind as to report TGI for each listed record?
1. CCOC(=O)/C(C(N)=O)=C(\O)C(=O)/C(Br)=C(\O)c1ccccc1
2. O=C(Nc1sccc1S(=O)(=O)c1ccc(Cl)cc1)c1ccc(F)cc1F
3. C[N+]1=c2c3cccc4cccc(c(=O)n2CC1)c43
4. COC(C)(C)[C@@H](O)[C@H](O)C[C@H](C)C1=C2CC[C@@H]3[C@@]4(C)CC[C@@H](OC(C)=O)C(C)(C)[C@@H]4C[C@@H](OC4OC(COC(C)=O)C(O)C(O)C4O)[C@@]3(C)[C@]2(C)CC1 (some centres undefined)
5. O=C(CCN1CCCC1)Nc1ccc2c(NCc3ccccc3)c3ccccc3nc2c1

[37.4, 39.5, 34.8, 26, 2.08]
